Ref: patent US20120316071A1

Target: T1, rHuman IGF-1 sR, CF (R&D Systems Cat#391-GR) (human, UniProt P08069 31-932)
T1 construct: Bought soluble receptor; also called insulin-like growth factor-1 soluble receptor
Assay: ECL multispot (MSD) assay, antigen spotted on plate, 20 nM Fab;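 also: purified Fab bound to plate-spotted antigen for 1 h at 20 °C, labelled detection antibody added, ratio of antigen ECL signal to same-well blank, ratio ≥4 counted as binder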
In this section we review reported ECL signal/blank ratio (read-out not given) values for a set of binders.
Provide a numeric answer; units are not to be included.

Fab VH3-23_IGHD2-21*01>3_IGHJ6*01 H100E/S108P/Y113G D62A & V2-13_IGLJ2*01 (Fab, V domains shown, Tested as a Fab made in E. coli; also called EPG D62A) VH: EVQLLESGGGLVQPGGSLRLSCAASGFTFSSYAMSWVRQAPGKGLEWVSSISGSGGSTYYAASVKGRFTISRDNSKNTLYLQMNSLRAEDTAVYYCAKEEIVVVIAIPYYYYGYGMDVWGQGTLVTVSS VL: SSELTQDPAVSVALGQTVRITCQGDSLRSYYASWYQQKPGQAPVLVIYGKNNRPSGIPDRFSGSSSGNTASLTITGAQAEDEADYYCNSRDSSGNHLVVFGGGTKLTVL = 1.4

In: Entry Fab VH3-23_IGHD2-21*01>3_IGHJ6*01 H100E/S108P/Y113G Y59A & V2-13_IGLJ2*01 (Fab, V domains shown, Tested as a Fab made in E. coli; also called EPG Y59A) VH: EVQLLESGGGLVQPGGSLRLSCAASGFTFSSYAMSWVRQAPGKGLEWVSSISGSGGSTAYADSVKGRFTISRDNSKNTLYLQMNSLRAEDTAVYYCAKEEIVVVIAIPYYYYGYGMDVWGQGTLVTVSS VL: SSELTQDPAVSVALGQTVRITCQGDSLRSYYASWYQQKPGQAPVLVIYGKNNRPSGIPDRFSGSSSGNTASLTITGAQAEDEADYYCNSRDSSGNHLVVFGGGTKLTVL : reported ECL signal/blank ratio (read-out not given) = ?
Out: 1.3
